Cited source: ChEMBL document CHEMBL5212743

# Target system: Histamine H3 receptor (Homo sapiens)
# Sequence (Q9Y5N1 whole entry): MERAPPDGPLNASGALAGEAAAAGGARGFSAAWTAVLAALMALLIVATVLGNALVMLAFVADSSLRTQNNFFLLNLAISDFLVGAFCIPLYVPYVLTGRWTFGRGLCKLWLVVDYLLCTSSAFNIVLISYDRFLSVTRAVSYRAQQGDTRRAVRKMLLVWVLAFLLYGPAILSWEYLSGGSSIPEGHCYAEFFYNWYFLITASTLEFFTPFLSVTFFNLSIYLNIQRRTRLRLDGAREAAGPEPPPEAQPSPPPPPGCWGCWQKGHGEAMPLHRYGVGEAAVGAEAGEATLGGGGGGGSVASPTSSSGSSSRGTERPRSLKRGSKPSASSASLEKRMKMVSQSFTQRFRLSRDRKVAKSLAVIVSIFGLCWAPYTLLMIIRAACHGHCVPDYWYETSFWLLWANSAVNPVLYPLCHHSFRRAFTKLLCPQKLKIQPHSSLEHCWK
# Assay summary: Selectivity interaction (GloSensor assay) EUB0000234b HRH3
pEC50: −log10 of the molar value.
Observed property: pEC50

# pEC50 lookup, item COc1cc(OC)cc(-c2noc(N3CCN(C)C4(CCN(c5ccnc(C)c5)CC4)C3)n2)c1 < 5.00

----------
# Target system: Focal adhesion kinase 1 (Homo sapiens, UniProt Q05397)
# Sequence (Q05397 whole entry): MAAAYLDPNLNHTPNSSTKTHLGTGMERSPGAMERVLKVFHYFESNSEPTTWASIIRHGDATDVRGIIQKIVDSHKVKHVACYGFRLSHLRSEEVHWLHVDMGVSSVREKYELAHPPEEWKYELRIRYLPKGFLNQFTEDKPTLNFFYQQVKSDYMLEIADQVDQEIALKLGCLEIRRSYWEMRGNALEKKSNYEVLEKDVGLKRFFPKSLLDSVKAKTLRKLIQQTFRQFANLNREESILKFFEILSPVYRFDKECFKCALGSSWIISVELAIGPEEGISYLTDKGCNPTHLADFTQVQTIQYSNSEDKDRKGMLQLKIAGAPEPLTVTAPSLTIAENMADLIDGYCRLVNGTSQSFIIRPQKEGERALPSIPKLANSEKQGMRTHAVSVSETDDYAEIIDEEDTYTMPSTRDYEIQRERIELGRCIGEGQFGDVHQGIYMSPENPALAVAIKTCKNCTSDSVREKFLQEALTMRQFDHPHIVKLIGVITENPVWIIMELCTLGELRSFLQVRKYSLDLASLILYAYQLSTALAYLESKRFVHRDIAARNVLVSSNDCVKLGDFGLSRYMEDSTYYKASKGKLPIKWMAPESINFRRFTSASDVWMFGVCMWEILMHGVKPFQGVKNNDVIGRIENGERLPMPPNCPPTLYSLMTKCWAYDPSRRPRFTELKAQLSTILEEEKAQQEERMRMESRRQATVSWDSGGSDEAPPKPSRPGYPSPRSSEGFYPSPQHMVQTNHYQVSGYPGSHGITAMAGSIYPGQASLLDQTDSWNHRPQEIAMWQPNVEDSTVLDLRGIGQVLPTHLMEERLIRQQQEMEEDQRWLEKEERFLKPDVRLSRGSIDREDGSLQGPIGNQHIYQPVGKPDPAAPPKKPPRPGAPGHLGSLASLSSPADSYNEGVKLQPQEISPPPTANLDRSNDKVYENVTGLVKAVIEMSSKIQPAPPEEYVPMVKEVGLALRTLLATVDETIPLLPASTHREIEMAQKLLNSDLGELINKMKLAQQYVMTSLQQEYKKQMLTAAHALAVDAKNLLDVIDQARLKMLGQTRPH
# Assay summary: Selectivity interaction (Enzymatic assay) EUB0000609a PTK2
Observed property: IC50 (µM)
Hi! Could you send only the number? It should be in µM, unit omitted.

# IC50 lookup, item COc1cc(N2CCC(O)CC2)ccc1Nc1cc(Nc2ccccc2S(=O)(=O)C(C)C)c2cc[nH]c2n1 0.44

----------
# Target system: Protein AF-9 (Homo sapiens)
# Sequence (P42568 whole entry): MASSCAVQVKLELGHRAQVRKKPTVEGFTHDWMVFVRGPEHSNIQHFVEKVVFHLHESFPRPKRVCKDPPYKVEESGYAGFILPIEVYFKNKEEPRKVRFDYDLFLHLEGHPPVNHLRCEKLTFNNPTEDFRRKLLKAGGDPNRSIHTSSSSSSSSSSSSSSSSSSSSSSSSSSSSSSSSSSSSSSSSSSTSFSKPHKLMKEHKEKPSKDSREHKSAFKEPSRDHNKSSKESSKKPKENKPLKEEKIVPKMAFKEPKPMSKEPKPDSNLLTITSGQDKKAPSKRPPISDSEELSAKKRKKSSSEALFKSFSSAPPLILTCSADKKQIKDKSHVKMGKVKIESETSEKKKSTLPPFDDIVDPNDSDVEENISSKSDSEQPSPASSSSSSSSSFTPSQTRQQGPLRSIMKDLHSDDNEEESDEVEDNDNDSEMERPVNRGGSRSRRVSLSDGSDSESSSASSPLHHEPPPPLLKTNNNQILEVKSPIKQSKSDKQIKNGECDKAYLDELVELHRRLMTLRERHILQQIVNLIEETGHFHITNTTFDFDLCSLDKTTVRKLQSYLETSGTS
Observed property: pKd
Entry type: numeric. Quantity: pKd, the -log10 of concentration in molar units.

Request: pKd, test system Protein AF-9 (Homo sapiens), entry CN(C)C(=O)c1ccc(-c2cc(C(=O)N[C@@H]3CCc4ccccc43)no2)cc1O 7.12

----------
# Target system: Dual specificity mitogen-activated protein kinase kinase 5 (Homo sapiens, UniProt Q13163)
# Sequence (Q13163 whole entry): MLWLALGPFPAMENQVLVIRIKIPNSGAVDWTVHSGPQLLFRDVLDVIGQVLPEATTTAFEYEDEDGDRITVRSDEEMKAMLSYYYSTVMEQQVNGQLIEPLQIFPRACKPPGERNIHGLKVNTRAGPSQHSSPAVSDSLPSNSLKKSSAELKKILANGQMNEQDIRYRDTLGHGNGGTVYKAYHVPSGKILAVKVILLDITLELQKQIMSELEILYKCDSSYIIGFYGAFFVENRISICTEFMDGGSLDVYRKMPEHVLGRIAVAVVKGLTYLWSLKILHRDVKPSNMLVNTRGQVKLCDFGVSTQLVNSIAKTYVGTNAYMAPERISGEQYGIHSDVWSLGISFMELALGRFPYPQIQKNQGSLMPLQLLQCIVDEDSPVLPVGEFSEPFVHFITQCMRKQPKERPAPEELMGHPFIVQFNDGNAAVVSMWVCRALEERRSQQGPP
# Assay summary: Selectivity interaction (NanoBRET assay (HEK293T cells)) EUB0000321b MAP2K5
Observed property: IC50

# IC50 lookup, item CN1CCN(C(=O)C(C)(C)c2ccc(C(=O)Nc3cn4cc(-c5ccncc5)ccc4n3)cc2)CC1 > 10 µM

----------
# Target system: Histone-lysine N-methyltransferase SUV39H2 (Homo sapiens)
# Sequence (Q9H5I1 whole entry): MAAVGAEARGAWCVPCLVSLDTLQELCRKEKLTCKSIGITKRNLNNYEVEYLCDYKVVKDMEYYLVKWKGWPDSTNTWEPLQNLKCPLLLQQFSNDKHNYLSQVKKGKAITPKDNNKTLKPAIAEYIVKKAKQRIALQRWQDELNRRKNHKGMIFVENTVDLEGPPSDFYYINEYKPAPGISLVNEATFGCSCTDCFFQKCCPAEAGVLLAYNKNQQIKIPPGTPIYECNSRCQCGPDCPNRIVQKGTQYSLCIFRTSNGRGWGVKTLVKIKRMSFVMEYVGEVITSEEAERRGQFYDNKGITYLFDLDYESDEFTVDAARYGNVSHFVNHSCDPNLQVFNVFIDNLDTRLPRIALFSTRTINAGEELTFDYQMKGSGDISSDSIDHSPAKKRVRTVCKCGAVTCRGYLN
# Assay summary: Selectivity interaction (Methyltransferase panel) EUB0000196bCl SUV39H2
Observed property: EC50

# EC50 lookup, item O=C([C@@H](Cc1cccc(C(F)(F)F)c1)NS(=O)(=O)c1cc(F)c2c(c1)CCNC2)N1CCCC1 > 10 µM

----------
# Target system: Histone-lysine N-methyltransferase, H3 lysine-79 specific (Homo sapiens, UniProt Q8TEK3)
# Sequence (Q8TEK3 whole entry): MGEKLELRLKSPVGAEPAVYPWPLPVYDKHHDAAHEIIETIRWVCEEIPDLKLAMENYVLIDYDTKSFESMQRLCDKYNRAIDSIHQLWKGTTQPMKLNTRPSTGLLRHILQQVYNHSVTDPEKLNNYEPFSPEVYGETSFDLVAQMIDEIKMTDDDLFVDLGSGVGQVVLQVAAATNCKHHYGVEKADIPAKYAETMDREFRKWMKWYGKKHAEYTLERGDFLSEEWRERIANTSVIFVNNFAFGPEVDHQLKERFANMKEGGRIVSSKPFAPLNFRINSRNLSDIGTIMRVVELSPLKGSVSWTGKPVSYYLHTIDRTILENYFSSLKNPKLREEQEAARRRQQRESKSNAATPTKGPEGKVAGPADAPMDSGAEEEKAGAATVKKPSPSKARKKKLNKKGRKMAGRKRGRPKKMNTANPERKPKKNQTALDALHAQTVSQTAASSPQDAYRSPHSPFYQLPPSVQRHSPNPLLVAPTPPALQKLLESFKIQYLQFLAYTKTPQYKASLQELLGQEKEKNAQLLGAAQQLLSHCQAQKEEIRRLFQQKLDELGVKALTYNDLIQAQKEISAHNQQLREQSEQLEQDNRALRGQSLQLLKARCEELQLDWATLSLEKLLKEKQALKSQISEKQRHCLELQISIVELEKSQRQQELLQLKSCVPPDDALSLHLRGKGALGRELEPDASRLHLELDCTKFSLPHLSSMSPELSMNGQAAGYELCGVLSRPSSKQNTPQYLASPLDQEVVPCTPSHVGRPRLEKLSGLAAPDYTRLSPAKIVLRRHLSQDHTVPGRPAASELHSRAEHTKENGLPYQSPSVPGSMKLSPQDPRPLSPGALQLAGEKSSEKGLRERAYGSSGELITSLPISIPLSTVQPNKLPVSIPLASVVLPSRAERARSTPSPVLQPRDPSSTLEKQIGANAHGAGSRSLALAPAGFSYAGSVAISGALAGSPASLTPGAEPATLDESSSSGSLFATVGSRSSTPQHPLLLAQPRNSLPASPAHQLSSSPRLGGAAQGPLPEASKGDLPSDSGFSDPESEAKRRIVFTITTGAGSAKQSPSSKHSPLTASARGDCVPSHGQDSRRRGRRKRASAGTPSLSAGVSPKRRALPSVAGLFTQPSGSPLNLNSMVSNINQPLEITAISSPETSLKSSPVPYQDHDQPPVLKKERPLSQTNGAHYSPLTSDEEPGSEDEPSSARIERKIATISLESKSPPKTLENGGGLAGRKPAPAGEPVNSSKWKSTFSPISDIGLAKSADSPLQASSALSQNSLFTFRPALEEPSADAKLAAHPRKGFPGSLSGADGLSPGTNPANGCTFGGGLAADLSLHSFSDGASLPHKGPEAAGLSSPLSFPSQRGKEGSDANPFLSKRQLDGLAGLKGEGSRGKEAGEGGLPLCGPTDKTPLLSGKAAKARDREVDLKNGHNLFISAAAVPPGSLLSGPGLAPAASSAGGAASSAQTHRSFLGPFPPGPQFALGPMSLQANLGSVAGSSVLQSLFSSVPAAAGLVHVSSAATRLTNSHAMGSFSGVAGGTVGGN
# Assay summary: Selectivity interaction (Methyltransferase panel (Scintillation proximity assay (SPA))) EUB0000212b DOT1L
pEC50: −log10 of the molar value.
Observed property: pEC50

# pEC50 lookup, item COc1cc2c(cc1OCCCN1CCCC1)N=C(N)C21CCC1 < 4.30

----------
# Target system: Alpha-1A adrenergic receptor (Homo sapiens, UniProt P35348)
# Sequence (P35348 whole entry): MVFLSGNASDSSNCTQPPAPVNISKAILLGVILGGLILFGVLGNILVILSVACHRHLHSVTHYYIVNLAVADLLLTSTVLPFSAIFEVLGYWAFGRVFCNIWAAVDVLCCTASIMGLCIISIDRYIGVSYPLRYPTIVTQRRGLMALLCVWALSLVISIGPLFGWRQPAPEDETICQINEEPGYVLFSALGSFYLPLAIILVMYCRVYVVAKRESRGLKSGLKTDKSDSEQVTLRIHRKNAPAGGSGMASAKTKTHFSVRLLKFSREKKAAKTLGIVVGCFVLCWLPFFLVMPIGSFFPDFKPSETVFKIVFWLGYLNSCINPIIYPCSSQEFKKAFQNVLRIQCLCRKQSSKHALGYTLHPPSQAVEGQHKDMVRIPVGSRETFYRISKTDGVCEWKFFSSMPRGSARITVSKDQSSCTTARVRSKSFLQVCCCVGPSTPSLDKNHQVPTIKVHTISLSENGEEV
# Assay summary: Selectivity interaction (CEREP panel (cellular receptors and 30 other enzymes)) EUB0000199c ADRA1A
Observed property: IC50 (µM)
Hi! Could you send only the number? It should be in µM, unit omitted.

# IC50 lookup, item O=C(/C=C/N1C[C@H]2C[C@@H]1CN2c1ccccn1)c1ccccc1O 0.44
